system: LG0567-F671-PDC multi-cell spheroid viability; assay: Anticancer human tumor LG0567-F671-PDC patient-derived lung adenocarcinoma cell line growth inhibition [IpAb]; settings: second compound 0.1 µM; first compound 1 µM; stronger effect = lower value;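 further: viability read after 7 days of drug exposure; 100% = DMSO vehicle control luminescence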
Attribute Measured: viability, T/C (%)
Response body: numeric value in %, unit text excluded.

Asked: For the compound Cc1nc(NC(=O)N2CCCC2C(N)=O)sc1-c1ccnc(C(C)(C)C(F)(F)F)c1 (configuration not stated) + CC(C)NCC(C(=O)N1CCN(c2ncnc3c2C(C)CC3O)CC1)c1ccc(Cl)cc1 , what viability, T/C is on record?
Given back: 42.8

Asked: Now give it for Cn1nccc1Nc1nccc(-c2ccn(C(CO)c3ccc(Cl)c(F)c3)c(=O)c2)n1 (configuration not stated) + CC(C)NCC(C(=O)N1CCN(c2ncnc3c2C(C)CC3O)CC1)c1ccc(Cl)cc1 too.
Given back: 34.2

Asked: Next: C=CCn1c(=O)c2cnc(Nc3ccc(N4CCN(C)CC4)cc3)nc2n1-c1cccc(C(C)(C)O)n1 + CC(C)NCC(C(=O)N1CCN(c2ncnc3c2C(C)CC3O)CC1)c1ccc(Cl)cc1
Given back: 44.6

Asked: Entry to check: Cn1ncc(Cl)c1-c1cc(C(=O)NC(CN)Cc2cccc(F)c2)sc1Cl (configuration not stated) + CC(C)NCC(C(=O)N1CCN(c2ncnc3c2C(C)CC3O)CC1)c1ccc(Cl)cc1
Given back: 81.1

Asked: And for Cc1nc(NC(=O)N2CCCC2C(N)=O)sc1-c1ccnc(C(C)(C)C(F)(F)F)c1 (configuration not stated) + CCN1CCN(Cc2ccc(Nc3ncc(F)c(-c4cc(F)c5nc(C)n(C(C)C)c5c4)n3)nc2)CC1 ?
Given back: 46

Asked: Repeat with CCCS(=O)(=O)Nc1ccc(F)c(C(=O)c2c[nH]c3ncc(-c4ccc(Cl)cc4)cc23)c1F + CC(C)NCC(C(=O)N1CCN(c2ncnc3c2C(C)CC3O)CC1)c1ccc(Cl)cc1
Given back: 137

Asked: What would you report for C=CC(=O)N1CCN(c2nc(=O)n(-c3c(C)ccnc3C(C)C)c3nc(-c4c(O)cccc4F)c(F)cc23)C(C)C1 (configuration not stated) + CC(C)NCC(C(=O)N1CCN(c2ncnc3c2C(C)CC3O)CC1)c1ccc(Cl)cc1 ?
Given back: 14.7

Asked: Now the same for C=CCn1c(=O)c2cnc(Nc3ccc(N4CCN(C)CC4)cc3)nc2n1-c1cccc(C(C)(C)O)n1 + CCN1CCN(Cc2ccc(Nc3ncc(F)c(-c4cc(F)c5nc(C)n(C(C)C)c5c4)n3)nc2)CC1
Given back: 51.1

Asked: Further, for Cn1ncc(Cl)c1-c1cc(C(=O)NC(CN)Cc2cccc(F)c2)sc1Cl (configuration not stated) + CCN1CCN(Cc2ccc(Nc3ncc(F)c(-c4cc(F)c5nc(C)n(C(C)C)c5c4)n3)nc2)CC1 ?
Given back: 45.8

Asked: Now consider C=CC(=O)N1CCN(c2nc(=O)n(-c3c(C)ccnc3C(C)C)c3nc(-c4c(O)cccc4F)c(F)cc23)C(C)C1 (configuration not stated) + CCN1CCN(Cc2ccc(Nc3ncc(F)c(-c4cc(F)c5nc(C)n(C(C)C)c5c4)n3)nc2)CC1 and answer again.
Given back: 13.2

Asked: Now the compound COc1c(OCCCN2CCOCC2)ccc2c3n(c(=NC(=O)c4cnc(N)nc4)nc12)CCN3 + CC(C)NCC(C(=O)N1CCN(c2ncnc3c2C(C)CC3O)CC1)c1ccc(Cl)cc1
Given back: 29.4

Asked: // next record CCCS(=O)(=O)Nc1ccc(F)c(C(=O)c2c[nH]c3ncc(-c4ccc(Cl)cc4)cc23)c1F + CCN1CCN(Cc2ccc(Nc3ncc(F)c(-c4cc(F)c5nc(C)n(C(C)C)c5c4)n3)nc2)CC1
Given back: 113

Data provenance: PubChem BioAssay AID2060332
